relative viability by entry:
Test system: NCI-H1915
Assay: relative viability (nuclei count vs DMSO), 5 days (fraction); higher = more cells survive
Conditions: first compound 0.006325 µM
Kindly provide the number alone.

// query What relative viability value was documented for this compound, CC(=O)O[C@@]12CO[C@@H]1C[C@H](O)[C@@]1(C)C(=O)[C@H](O)C3=C(C)[C@@H](OC(=O)[C@H](O)[C@@H](NC(=O)OC(C)(C)C)c4ccccc4)C[C@@](O)([C@@H](OC(=O)c4ccccc4)[C@H]21)C3(C)C [Docetaxel] + Cc1nc(NC(=O)N2CCC[C@H]2C(N)=O)sc1-c1ccnc(C(C)(C)C(F)(F)F)c1 [Alpelisib] (partner 2 µM) ?
// result 0.183

// query What value of measured relative viability is listed for CC(=O)O[C@@]12CO[C@@H]1C[C@H](O)[C@@]1(C)C(=O)[C@H](O)C3=C(C)[C@@H](OC(=O)[C@H](O)[C@@H](NC(=O)OC(C)(C)C)c4ccccc4)C[C@@](O)([C@@H](OC(=O)c4ccccc4)[C@H]21)C3(C)C [Docetaxel] + NC(=O)Nc1cc(-c2cccc(F)c2)sc1C(=O)N[C@H]1CCCNC1 [AZD7762] (partner 0.2 µM) ?
// result 0.182

New cases:
// query Value lookup for relative viability; key = CC(=O)O[C@@]12CO[C@@H]1C[C@H](O)[C@@]1(C)C(=O)[C@H](O)C3=C(C)[C@@H](OC(=O)[C@H](O)[C@@H](NC(=O)OC(C)(C)C)c4ccccc4)C[C@@](O)([C@@H](OC(=O)c4ccccc4)[C@H]21)C3(C)C [Docetaxel] + CS(=O)(=O)CCNCc1ccc(-c2ccc3ncnc(Nc4ccc(OCc5cccc(F)c5)c(Cl)c4)c3c2)o1 [Lapatinib] (partner 2 µM)
// result 0.146

====

System: SK-MES-1
Assay: relative viability (nuclei count vs DMSO), 5 days (fraction); higher = more cells survive
Settings: first compound 5 µM
With a cut-off of 0.6, any relative viability strictly below it is called Met; any relative viability meeting it or above is called Not met.

// query Is relative viability of O=C(O)CCCCC(CCSCc1ccccc1)SCc1ccccc1 (stereo unspecified) [CPI-613] + N=C(N)NC(=N)NCCc1ccccc1 [Phenformin] (partner 250 µM) strictly below 0.6?
// result Not met

Next:
// query In the record for O=C(O)CCCCC(CCSCc1ccccc1)SCc1ccccc1 (stereo unspecified) [CPI-613] + Cc1nc(Nc2ncc(C(=O)Nc3c(C)cccc3Cl)s2)cc(N2CCN(CCO)CC2)n1 [Dasatinib] (partner 0.075 µM) , is relative viability less than 0.6?
// result Met

====

relative viability overview
System: HARA
Assay: relative viability (nuclei count vs DMSO), 5 days (fraction); higher = more cells survive
Details: first compound 158.11 µM
Answer with a number only.

Sample answers from the record:
// query Fill in: relative viability of O=C(O)CCCCC(CCSCc1ccccc1)SCc1ccccc1 (stereo not given) [CPI-613] + CC(C)C[C@H](NC(=O)[C@H](Cc1ccccc1)NC(=O)c1cnccn1)B(O)O [Bortezomib] (partner 0.002 µM) is ___
// result 0.716

// query relative viability lookup needed for O=C(O)CCCCC(CCSCc1ccccc1)SCc1ccccc1 (stereo not given) [CPI-613] + COc1cc2c(Oc3ccc(NC(=O)C4(C(=O)Nc5ccc(F)cc5)CC4)cc3F)ccnc2cc1OCCCN1CCOCC1 [Foretinib] (partner 0.25 µM) , thanks.
// result 0.51

// query Give the measured relative viability of O=C(O)CCCCC(CCSCc1ccccc1)SCc1ccccc1 (stereo not given) [CPI-613] + Cc1nc(NC(=O)N2CCC[C@H]2C(N)=O)sc1-c1ccnc(C(C)(C)C(F)(F)F)c1 [Alpelisib] (partner 2 µM) .
// result 0.401

// query Which relative viability is listed for O=C(O)CCCCC(CCSCc1ccccc1)SCc1ccccc1 (stereo not given) [CPI-613] + C[C@]1(O)C[C@@H](c2nc(-c3ccc4ccc(-c5ccccc5)nc4c3)c3c(N)nccn32)C1 [Linsitinib] (partner 1 µM) ?
// result 0.44

Shifting focus to the molecule that follows.
// query Please give the measured relative viability for this molecule: O=C(O)CCCCC(CCSCc1ccccc1)SCc1ccccc1 (stereo not given) [CPI-613] + COc1cccc2cc(-c3nc([C@H]4CC[C@H](C(=O)O)CC4)n4ncnc(N)c34)[nH]c12 [OSI-027] (partner 0.5 µM)
// result 0.188

Data credit: the supplement of paper PMC10307832
